biological target: Androgen receptor (Homo sapiens) (UniProt P10275); assay: qHTS assay to identify small molecule antagonists of the androgen receptor (AR) signaling pathway (AID 743035); settings: HEK293 AR-UAS-bla, R1881-stimulated, beta-lactamase FRET, 16 h; series mostly up to 58.5 µM
Sequence (P10275 whole entry, looked up): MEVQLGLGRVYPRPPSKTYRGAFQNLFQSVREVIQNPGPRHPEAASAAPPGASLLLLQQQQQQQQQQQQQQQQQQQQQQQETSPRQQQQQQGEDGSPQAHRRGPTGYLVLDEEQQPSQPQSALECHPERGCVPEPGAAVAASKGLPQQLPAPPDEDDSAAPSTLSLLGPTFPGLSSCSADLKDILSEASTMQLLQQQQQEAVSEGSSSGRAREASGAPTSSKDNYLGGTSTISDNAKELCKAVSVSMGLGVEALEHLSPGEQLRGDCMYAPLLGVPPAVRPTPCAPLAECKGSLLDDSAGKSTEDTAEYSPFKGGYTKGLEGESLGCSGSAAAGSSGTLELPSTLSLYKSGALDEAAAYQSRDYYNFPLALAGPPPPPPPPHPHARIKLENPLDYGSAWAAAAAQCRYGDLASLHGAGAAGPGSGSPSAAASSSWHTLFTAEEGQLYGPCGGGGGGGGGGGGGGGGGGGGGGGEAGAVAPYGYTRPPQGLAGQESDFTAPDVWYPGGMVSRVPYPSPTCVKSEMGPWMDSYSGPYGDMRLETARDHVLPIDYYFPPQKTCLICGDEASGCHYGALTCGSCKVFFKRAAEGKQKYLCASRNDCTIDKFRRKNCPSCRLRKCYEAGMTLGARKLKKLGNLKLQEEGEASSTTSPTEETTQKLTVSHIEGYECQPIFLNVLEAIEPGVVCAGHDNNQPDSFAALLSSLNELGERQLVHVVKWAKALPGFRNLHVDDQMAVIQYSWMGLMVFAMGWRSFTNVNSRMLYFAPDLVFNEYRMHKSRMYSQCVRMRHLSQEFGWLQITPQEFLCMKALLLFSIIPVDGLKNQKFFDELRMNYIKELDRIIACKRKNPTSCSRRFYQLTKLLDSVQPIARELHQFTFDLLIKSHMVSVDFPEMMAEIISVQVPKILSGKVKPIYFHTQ
Records with an inconclusive call do not appear. The source made the active and inactive calls. The call rests on the fitted dose curve; in most records, active means well fitted inhibition curve with a large enough effect in the signal ratio in the repeat runs (not every such curve was filed as active); inconclusive means weak or mixed curves, or effect the other way; inactive means no such curve, though single readings can be large or run the other way; the % refers to the signal ratio.
QUANTITY: outcome

Record excerpt, results attached:
{"COMPOUND": "Cn1c(=O)c2c(ncn2CC2OCCO2)n(C)c1=O", "MEASUREMENT_TARGET": "Androgen receptor (Homo sapiens) (UniProt P10275)", "RECORDED_RESULT": "inactive"}
{"COMPOUND": "Nc1ccnc(=O)[nH]1", "MEASUREMENT_TARGET": "Androgen receptor (Homo sapiens) (UniProt P10275)", "RECORDED_RESULT": "inactive"}
{"COMPOUND": "C=CCOCC(O)CCl (configuration not stated)", "MEASUREMENT_TARGET": "Androgen receptor (Homo sapiens) (UniProt P10275)", "RECORDED_RESULT": "inactive"}
{"COMPOUND": "CCC(C)(C)C1CCC(=O)CC1", "MEASUREMENT_TARGET": "Androgen receptor (Homo sapiens) (UniProt P10275)", "RECORDED_RESULT": "inactive"}

Task: Please give the documented outcome of OC(CCN1CCCCC1)(c1ccccc1)c1ccccc1
Result: inactive

Task: Please give the documented outcome of O=C(O)c1ccccc1C(=O)Nc1ccc(S(=O)(=O)Nc2nccs2)cc1
Result: inactive

Task: Provide outcome value for the following compound: Cc1ncc([N+](=O)[O-])n1CC(O)CCl (configuration not stated)
Result: inactive

Origin of values: PubChem BioAssay (Tox21)
